# Measured On: Fibroblast growth factor 22 (Homo sapiens)
# Assay Details: binders of human FGF22 protein, primary screen, FGF22 synaptogenesis inhibitor project, biophysical, thermal shift, single point (AID 651658)
# Setup Conditions: recombinant FGF22 thermal shift, SYPRO orange fluorescence; at 9.99 µM; percent of sucrose octasulfate shift, DMSO zero
Hit rate of the full screen: of about 340,000 compounds, about 5,100 (1.5%) were called active.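 Rule for the calls: active = mean Tm shift, scaled 0 neutral to 100 positive control, at about 1.3% or above, every replicate too (limit read from the data); inconclusive = no clear call, values can overlap the other calls; inactive = the rest.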 This is one part of a sample in which actives are shown more often than they occur.
Please reply with one of these outcomes: class 1 for active, class 0 for inactive

{"columns": ["Molecule", "Category Label"],
 "data": [
  ["CC(C)NC(=O)N1[C@@H]2c3ccc(-c4ccc(F)cc4)c(=O)n3C[C@@H]2[C@@H](CO)[C@@H]1C(=O)N1CCOCC1", "class 0"],
  ["O=C(N[C@H]1C=C[C@@H](CC(=O)N2CCCCC2)O[C@@H]1CO)c1ccc2c(c1)OCO2", "class 0"],
  ["CC(=NNC(=O)c1ccc2nc[nH]c2c1)c1ccc(Br)cc1", "class 0"],
  ["CCCNC(=O)N1C[C@@H](O)COC[C@H]2O[C@H](CC(=O)NCCCN3CCOCC3)CC[C@@H]21", "class 0"],
  ["Cn1c(=O)c2cc(S(=O)(=O)NCCC(=O)Nc3ccc(F)cc3F)ccc2n(C)c1=O", "class 1"],
  ["O=C(C[C@H]1CC[C@@H](NC(=O)Nc2ccc(F)cc2)[C@@H](CO)O1)NCCN1CCCC1", "class 0"],
  ["O=C(OCC(=O)N1CCN(C(=O)c2ccco2)CC1)c1cccc(O)c1", "class 0"],
  ["COc1ccc(S(=O)(=O)N2CCCCN3[C@H](CO)[C@H](c4ccc(C5=CCCCC5)cc4)[C@@H]3C2)cc1", "class 0"]
]}

-- ask Call for entry COC(=O)c1ccc(NC(=S)NN2CCOCC2)cc1 :
-- reply class 1

-- ask Another molecule: CCCc1cn(CC[C@@H]2CC[C@@H](NC(=O)CCN3CCCCC3)[C@H](CO)O2)nn1
-- reply class 0

-- ask Another molecule: CCCCN(C(=O)c1nn(C)c(=O)c2ccccc12)c1c(N)n(CCC)c(=O)[nH]c1=O
-- reply class 0

-- ask Another molecule: COC(=O)c1ccc(NC(=S)Nc2cccc(C)n2)cc1
-- reply class 0

-- ask Another molecule: COc1ccc(CNC(=O)C2CCCC2)cc1
-- reply class 0

====

For each record, write down the corresponding activity (Tm shift, normalised).
# Measured On: Fibroblast growth factor 22 (Homo sapiens)
# Assay Details: binders of human FGF22 protein, primary screen, FGF22 synaptogenesis inhibitor project, biophysical, thermal shift, single point (AID 651658)
# Setup Conditions: recombinant FGF22 thermal shift, SYPRO orange fluorescence; at 9.99 µM; hits give high values; percent of sucrose octasulfate shift, DMSO zero
About 5,100 (1.5%) of roughly 340,000 compounds were called active. The entries come from a sample that favours actives as a whole.

# count of solved cases: 3
{"columns": ["Molecule", "Measured On", "activity (Tm shift, normalised)"],
 "data": [
  ["C[C@@H]1CN([C@H](C)CO)C(=O)c2c(c3ccccc3n2C)-c2ccccc2CO[C@H]1CN(C)Cc1ccc(F)cc1", "Fibroblast growth factor 22 (Homo sapiens)", "0.453% (inactive)"],
  ["C[C@@H]1CCCCO[C@H](CN(C)C(=O)Nc2ccc(C(F)(F)F)cc2)[C@@H](C)CN([C@@H](C)CO)C(=O)c2cc(NC(=O)Nc3cccc4ccccc34)ccc2O1", "Fibroblast growth factor 22 (Homo sapiens)", "-0.177% (inactive)"],
  ["CCC1(C)COC(c2ccc(OC)c(OC)c2)OC1 (centres undefined)", "Fibroblast growth factor 22 (Homo sapiens)", "-0.154% (inactive)"]
]}

-- ask Under Fibroblast growth factor 22 (Homo sapiens): activity (Tm shift, normalised) value of C[C@@H](O)C#Cc1ccc([C@H]2[C@@H](CO)N3CCCCN(S(=O)(=O)c4ccccc4)C[C@@H]23)cc1 ?
-- reply -0.117% (inactive)
